Collected EC50 values appear next to each entry.
# System: EVSA-T (human breast carcinoma)
# METHOD SUMMARY: Anti-proliferative activity, Alamar Blue assay, EVSA-T
# Format: cell-based
# EXPERIMENTAL CONDITIONS: Homo sapiens, EVSA-T, 72 h, EVSA-T cells, 72 hours, Alamar Blue; read-out: EVSA-T prolif
Structures can show the parent of a compound that is named as a salt.
VALUE KIND: EC50

[[record]]
molecule = "C[C@@H]1CN(CC(=O)N2CC(C)(C)c3c2cc(Cc2ccc(F)cc2)c[n+]3[O-])[C@@H](CN2[C@H](C)COC[C@H]2C)CN1 [Example 121, dihydrochloride]"
value_kind = "EC50"
value_measured = "0.37 nM"

[[record]]
molecule = "CCCC(F)(F)c1cc2c(cn1)C(C)(C)CN2C(=O)CN1C[C@@H](C)NC[C@@H]1CN1[C@H](C)CN(C(C)=O)C[C@@H]1C [Example 93, dihydrochloride]"
value_kind = "EC50"
value_measured = "7.1 nM"

[[record]]
molecule = "C[C@@H]1CN(CC(=O)N2CC(C)(C)c3ncc(Cc4ccc(F)cc4)cc32)[C@@H](CN2CCNC(=O)C2)CN1 [Example 42, dihydrochloride]"
value_kind = "EC50"
value_measured = "11 nM"

